- targetSystem: Melatonin receptor type 1B (Gallus gallus, UniProt P51050)
- Sequence (P51050 whole entry): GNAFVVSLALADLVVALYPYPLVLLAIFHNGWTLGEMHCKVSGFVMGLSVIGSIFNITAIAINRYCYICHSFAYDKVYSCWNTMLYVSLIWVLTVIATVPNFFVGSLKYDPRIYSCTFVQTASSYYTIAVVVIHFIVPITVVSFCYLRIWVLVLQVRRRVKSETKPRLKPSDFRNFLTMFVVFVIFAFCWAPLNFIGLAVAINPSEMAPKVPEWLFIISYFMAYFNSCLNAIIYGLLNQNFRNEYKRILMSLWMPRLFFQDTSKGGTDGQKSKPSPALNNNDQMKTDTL
- assayDetails: Binding affinity measured against Chicken brain melatonin receptor by using 2-[125I]iodomelatonin as radioligand
propertyLabel: Ki

CCCC(=O)NCC1CCc2ccc(OC)cc21 (configuration not stated): 7.6 nM
CCC(=O)NCC1CCc2ccc(OC)cc21 (single isomer, unassigned; (+)): 3 nM
CCC(=O)NCC1CCc2ccc(OC)cc21 (single isomer, unassigned; (-)): 456 nM
COc1ccc2c(c1)C(CNC(C)=O)CCCC2 (configuration not stated): 34 nM
COc1ccc2c(c1)C(CNC(C)=O)C2 (configuration not stated): 224 nM

Which Ki is listed for CCCC(=O)NCC1Cc2ccc(OC)cc21 (configuration not stated) ?
49 nM

Which Ki is listed for CCCC(=O)NCC1CCCCc2ccc(OC)cc21 (configuration not stated) ?
1 nM
